Catalogue of molecules with associated melting point

Consider the reported melting point for these molecules:
Noted for COc1ccc(OC)c(CC2=C(C)C(=O)c3cc(OC)c(OC)cc3C2=O)c1 : its melting point reads 166 to 167 °C

So, COc1cc2c(cc1OC)C(=O)C(Cc1ccc(Br)cc1)=C(C)C2=O ? Its melting point was > 200 °C (dec.)

For COc1ccc2c(c1)C(=O)C(C)=C(Cc1ccc(C(F)(F)F)cc1)C2=O the molecule record lists melting point as 137 to 139 °C

For this molecule ( COc1cc(CC2=C(C)C(=O)c3cc(OC)c(OC)cc3C2=O)cc(OC)c1 ), measured melting point is 168 to 169 °C

The molecule listed as COc1ccc2c(c1)C(=O)C(Cc1ccc(C(F)(F)F)cc1)=C(C)C2=O has a reported melting point of 86 to 87 °C

More entries:
So, CC1=C(Cc2ccc(F)c(Cl)c2)C(=O)c2ccc(F)cc2C1=O ? Its melting point was 117 to 118 °C

// sample CC1=C(Cc2ccc(Br)cc2)C(=O)c2c(C)cccc2C1=O , its melting point was 149 to 150 °C

The molecule listed as CC1=C(Cc2ccc(C(F)(F)F)cc2)C(=O)c2cccc(C)c2C1=O has a reported melting point of 98 to 99 °C

* * *

# key: entry, value: melting point
Structures can show the parent of a compound that is named as a salt.

See these solved cases before continuing.
Given item CC1=C(Cc2ccc(C(F)(F)F)cc2)C(=O)c2cc(OS(=O)(=O)C(F)(F)F)ccc2C1=O (as salt: methanesulfonate) [Compound 12.29] , the value recorded as its melting point is 127 °C

// melting point lookup, compound = CC1=C(Cc2ccc(Br)cc2)C(=O)c2ccc(C)cc2C1=O [Compound 12.24] , result: 122 to 123 °C

Looking up CC1=C(Cc2ccc(C(F)(F)F)cc2)C(=O)c2cc(C)c(C)cc2C1=O [Compound 12.27] , I found its melting point recorded as 143 to 144 °C

# compound CC1=C(Cc2ccc(C(F)(F)F)cc2)C(=O)c2c(C)cccc2C1=O [Compound 12.19] ; its melting point = 87 to 88 °C

GET /value?item= CC1=C(Cc2ccc(Br)cc2)C(=O)c2cc(F)ccc2C1=O [Compound 12.5] &field=melting point returns 127 to 129 °C

---
Looking up CC1=C(Cc2ccc(C(F)(F)F)cc2)C(=O)c2ccc(OS(=O)(=O)C(F)(F)F)cc2C1=O (as salt: methanesulfonate) [Compound 12.30] , I see its melting point listed as 87 to 88 °C

Measured melting point, CC1=C(Cc2ccc(C(F)(F)F)cc2)C(=O)c2ccc(C)cc2C1=O [Compound 12.23] : 102 °C
